Target entity: T1, human IL-11 (AAH12506.1, Pro22-Leu199) (human, UniProt P20809 22-199)
T1 construct: The range Pro22-Leu199 counts on AAH12506.1; The Octet runs say only 'human IL-11'; also called hIL-11
T1 chain: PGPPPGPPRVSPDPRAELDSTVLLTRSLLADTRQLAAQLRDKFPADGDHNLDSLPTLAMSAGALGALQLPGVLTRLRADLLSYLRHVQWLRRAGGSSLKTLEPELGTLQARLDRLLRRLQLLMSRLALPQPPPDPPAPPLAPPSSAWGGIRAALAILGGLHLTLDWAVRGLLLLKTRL
Assay remarks: BLI (Octet), antibody captured, human IL-11 in solution
Outcome measure: kon (M⁻¹ s⁻¹)

| Binder | Number |
| --- | --- |
| hz8C8-VHm1 + hz8C8-VLm7-m4 (antibody, human IgG1, kappa, V domains shown, human IgG1 constant regions) VH: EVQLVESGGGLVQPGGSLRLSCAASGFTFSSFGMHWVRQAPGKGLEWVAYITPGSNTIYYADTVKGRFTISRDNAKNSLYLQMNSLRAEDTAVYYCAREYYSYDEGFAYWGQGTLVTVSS VL: EIVLTQSPATLSLSPGERATLSCSVSDLIPSQYLHWYQQKPGQAPRLLIYRTSNRASGIPARFSGSGSGTDFTLTISSLEPEDFAVYYCQQGVDVPFTFGQGTKLEIKR | 1e+06 |
| hz8C8-VHm1-m5 + hz8C8-VLm7-m2 (antibody, human IgG1, kappa, V domains shown, human IgG1 constant regions) VH: EVQLVESGGGLVQPGGSLRLSCAASGFTFSSFGMHWVRQAPGKGLEYVAYITPGSNTIYYADTVKGRFTISRDNAKNSLYLQMNSLRAEDTAVYYCAREYYSYDEGFAYWGQGTLVTVSS VL: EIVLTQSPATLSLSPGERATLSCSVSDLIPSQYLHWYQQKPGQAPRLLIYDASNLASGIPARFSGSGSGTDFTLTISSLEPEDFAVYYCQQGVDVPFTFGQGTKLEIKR | 683000 |
| hz8C8-VHm1-m8 + hz8C8-VLm7-m2 (antibody, human IgG1, kappa, V domains shown, human IgG1 constant regions) VH: EVQLVESGGGLVQPGGSLRLSCAASGFTFSSFGMHWVRQAPGKGLEWIGYITPGSNTIYYADTVKGRFTISRDNAKNSLYLQMNSLRAEDTAVYYCAREYYSYDEGFAYWGQGTLVTVSS VL: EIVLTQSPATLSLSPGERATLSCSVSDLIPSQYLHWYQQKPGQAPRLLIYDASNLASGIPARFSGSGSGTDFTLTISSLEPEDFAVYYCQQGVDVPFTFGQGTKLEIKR | 847000 |
| hz8C8-VHm4 + hz8C8-VL (antibody, human IgG1, kappa, V domains shown, human IgG1 constant regions) VH: EVQLVESGGGLVQPGGSLRLSCAASGFTFSSFGMHWVRQAPGKGLEWVAYITSGANTIYYADTVKGRFTISRDNAKNSLYLQMNSLRAEDTAVYYCAREYYSYDEGFAYWGQGTLVTVSS VL: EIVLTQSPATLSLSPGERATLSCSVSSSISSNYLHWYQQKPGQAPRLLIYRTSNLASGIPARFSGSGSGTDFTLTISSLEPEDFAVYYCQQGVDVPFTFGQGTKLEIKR | 878000 |
| hz8C8-VHm1-m2 + hz8C8-VLm7 (antibody, human IgG1, kappa, V domains shown, human IgG1 constant regions) VH: EVQLVESGGGLVQPGGSLRLSCAASGFTFSSFGMHWVRQAPGKGLEWVASITPGSNTIYYADTVKGRFTISRDNAKNSLYLQMNSLRAEDTAVYYCAREYYSYDEGFAYWGQGTLVTVSS VL: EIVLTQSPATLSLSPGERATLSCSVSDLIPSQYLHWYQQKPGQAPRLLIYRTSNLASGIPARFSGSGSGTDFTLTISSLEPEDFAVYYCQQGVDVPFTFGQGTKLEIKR | 1.04e+06 |
